B1: HDV Ribozyme (parent)
chain: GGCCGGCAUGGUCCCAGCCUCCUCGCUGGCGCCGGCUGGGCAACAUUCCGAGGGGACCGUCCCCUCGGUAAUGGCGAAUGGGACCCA

- Variants of: B1
- experimental_details: self-cleavage, relative activity (ratio to wild type); higher = more cleavage; co-transcriptional
Short version: self-cleavage at least 0.2 is true, less is false.

[[record]]
mutation_notation = "C24G G50A"
group = "false"

[[record]]
mutation_notation = "C22G C61A"
group = "false"

[[record]]
mutation_notation = "C26A G80A"
group = "true"

[[record]]
mutation_notation = "G55U A87C"
group = "true"

[[record]]
mutation_notation = "C4U C32A"
group = "false"

[[record]]
mutation_notation = "C3G A51U"
group = "true"

[[record]]
mutation_notation = "U12C U60G"
group = "true"

[[record]]
mutation_notation = "A8C A83U"
group = "true"


Ask: Evaluate G52C G73A : self-cleavage at minimum 0.2?
Reply: true

Ask: Quick check: does G34A G38C have self-cleavage greater than or equal to 0.2?
Reply: false

Ask: # check: self-cleavage of C4A A51U is greater than or equal to 0.2
Reply: false

Ask: Has G34A C62A a recorded self-cleavage greater than or equal to 0.2?
Reply: false

Ask: Quick check, self-cleavage >= 0.2? A16C C75A
Reply: false
